Would you kindly list normalized growth for each of these molecules?
Experiment: chemical genetic growth profiling, strain panel (AID 1159580);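 note: tested at 20 µM; growth read once vehicle control cultures reached saturation at 30 °C; 1 = growth at the plate median or of vehicle wells; lower values mean less growth of the strain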
Details: S. cerevisiae deletion strains, growth OD, locus YDR392W, strain spt3, hits give low values
In all, about 5,500 compounds went through this assay and about 2,000 (36%) were called active. Another 18% or so got no clear call; they are omitted. The list shows a part of the results.
Give bare numbers.

Use the examples below as a reference point.
CC1=CC(=O)c2ccccc2C1=O : 0.539
COc1ccc(C2Sc3ccccc3N(CCN(C)C)C(=O)C2OC(C)=O)cc1 (stereo unspecified) : 1.02
CN(C)CCCN1c2ccccc2Sc2ccc(Cl)cc21 : 0.351

Consider the following items and state reported normalized growth for each.
1. CC(=O)O[C@H]1CCC2(C)C3=C(CCC2C1(C)C)[C@]1(C)CCC(C(C)CCC=C(C)C)[C@@]1(C)CC3 (stereo partly specified)
2. CCOC(=O)NNc1nncc2ccccc12
3. COC(=O)c1c(OC)cc2c(c1C)Oc1c(Cl)c(O)c(Cl)c(C)c1C(=O)O2
4. CN(C)CCCN1c2ccccc2CCc2ccc(Cl)cc21
5. CC(=O)O[C@H]1CCC2(C)C3=C(CCC2C1(C)C)[C@@]1(C)CC[C@@H](C(C)CCC=C(C)C)[C@]1(C)CC3 (stereo partly specified)
6. COC(=O)c1c(C)c2c(c(C)c1O)OC(=O)c1c(C)c(Cl)c(O)c(Cl)c1O2
7. COC(=O)c1c(OC)cc2c(c1C)Oc1c(Cl)c(OC(C)=O)c(Cl)c(C)c1C(=O)O2

[A]
0.979
0.998
0.965
0.93
1.04
0.617
0.866

[Q] What normalized growth value was documented for this molecule, `Cc1nc(N)cc(C[n+]2csc(CCO)c2C)n1` ?
[A] 0.973
